TARGET OR TEST SYSTEM: full-length USP7 (Homo sapiens, UniProt Q93009)
Construct: A 45 μl reaction volume containing full-length USP7 (0.5-1.0 nM)
Sequence (Q93009 whole entry): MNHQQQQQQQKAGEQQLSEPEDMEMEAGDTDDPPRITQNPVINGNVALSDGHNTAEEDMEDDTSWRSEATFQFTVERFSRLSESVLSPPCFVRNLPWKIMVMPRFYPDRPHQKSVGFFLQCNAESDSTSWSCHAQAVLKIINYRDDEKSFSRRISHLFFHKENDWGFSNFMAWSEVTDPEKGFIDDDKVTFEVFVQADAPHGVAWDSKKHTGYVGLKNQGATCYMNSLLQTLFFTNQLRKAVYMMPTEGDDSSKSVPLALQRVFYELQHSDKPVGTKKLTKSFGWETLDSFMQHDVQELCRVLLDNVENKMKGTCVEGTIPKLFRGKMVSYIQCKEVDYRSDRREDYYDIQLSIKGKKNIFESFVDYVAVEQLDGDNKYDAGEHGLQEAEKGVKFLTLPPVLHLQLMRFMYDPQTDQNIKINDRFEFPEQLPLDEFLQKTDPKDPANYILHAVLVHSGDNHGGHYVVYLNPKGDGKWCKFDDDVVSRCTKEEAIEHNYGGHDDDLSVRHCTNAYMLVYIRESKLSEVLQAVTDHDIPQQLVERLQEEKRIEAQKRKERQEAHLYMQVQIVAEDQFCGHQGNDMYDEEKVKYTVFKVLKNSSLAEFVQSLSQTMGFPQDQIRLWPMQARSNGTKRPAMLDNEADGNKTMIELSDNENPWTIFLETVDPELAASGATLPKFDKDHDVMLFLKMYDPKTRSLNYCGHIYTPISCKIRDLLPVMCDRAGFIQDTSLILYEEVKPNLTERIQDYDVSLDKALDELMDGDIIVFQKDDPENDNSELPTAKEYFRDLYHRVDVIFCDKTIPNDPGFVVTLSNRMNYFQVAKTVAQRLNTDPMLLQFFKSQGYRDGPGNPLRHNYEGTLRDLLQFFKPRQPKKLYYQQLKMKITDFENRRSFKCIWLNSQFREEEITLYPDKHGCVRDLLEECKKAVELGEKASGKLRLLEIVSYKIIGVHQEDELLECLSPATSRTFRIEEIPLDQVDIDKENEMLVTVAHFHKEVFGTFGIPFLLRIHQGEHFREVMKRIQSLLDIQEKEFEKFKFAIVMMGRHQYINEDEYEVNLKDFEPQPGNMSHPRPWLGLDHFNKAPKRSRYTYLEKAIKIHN
ASSAY DETAILS: Enzymatic assay to determine % inhibition of USP7 activity at 1 μM test compound (Ubiquitin-Rhodamine 110 cleavage)
Assay type: biochemical
RECORDED CONDITIONS: 1 μM of the test compound; given where IC50 has not been determined yet; mean of two repetitions
Counter-ions that a name gives are not always drawn.
# inhibition at 1 µM per record follows

# COMPOUND, inhibition at 1 µM
measured = [
    ("CC1(C)C2C(=O)N(Cc3cc4c(-c5cc(Cl)cc6c5N(C[C@@H]5CNCCO5)CCC6)ncnn4c3)C(=O)C21 (some centres unmarked) [Example 65, hydrochloride]", "20 to 49%"),
    ("Cc1cc(Cl)cc(-c2ncnn3cc(CN4C(=O)C5C(C4=O)C5(C)C)cc23)c1CC1CNCC(F)(F)CO1 (centres unmarked) [Example 38, hydrochloride]", "< 20%"),
    ("Cc1cc(Cl)cc(-c2ncnn3cc(CN4C(=O)C5C(C4=O)C5(C)C)cc23)c1O[C@@H]1CNCC(F)(F)C1 (some centres unmarked) [Example 28, 2,2,2-trifluoroacetate]", "< 20%"),
    ("Cc1cc(F)cc(-c2ncnn3cc(Cn4c(=O)ccn(C)c4=O)cc23)c1CC1CNC[C@H](C)O1 (some centres unmarked) [Example 128, hydrochloride]", "20 to 49%"),
    ("Cc1cc(Cl)cc(-c2ncnn3cc(CN4C(=O)C5C(C4=O)C5(C)C)cc23)c1O[C@@H]1CC[C@@H](C)NC1 (some centres unmarked) [Example 3, hydrochloride]", "20 to 49%"),
    ("CC1(C)C2C(=O)N(Cc3cc4c(-c5cc(Cl)ccc5N5CC[C@@H](N)C5)ncnn4c3)C(=O)C21 (some centres unmarked) [Example 87, hydrochloride]", "20 to 49%"),
    ("CC1(C)C2C(=O)N(Cc3cc4c(-c5cc(Cl)cc6c5N(C5CCNC5)CC5CC65)ncnn4c3)C(=O)C21 (centres unmarked) [Example 92, hydrochloride]", "50 to 70%"),
    ("Cc1cc(Cl)cc(-c2ncnn3cc(CN4C(=O)C5C(C4=O)C5(C)C)c(C)c23)c1O[C@H]1CCCNC1 (some centres unmarked) [Example 12, hydrochloride]", "50 to 70%"),
    ("Cc1c(CN2C(=O)C3C(C2=O)C3(C)C)cn2ncnc(-c3cc(Cl)cc4ccn(CC5(F)CCNCC5)c34)c12 (centres unmarked) [Example 21, hydrochloride]", "50 to 70%"),
    ("CN[C@H]1CCCN(c2ccc(Cl)cc2-c2ncnn3cc(CN4C(=O)C5C(C4=O)C5(C)C)cc23)C1 (some centres unmarked) [Example 112, hydrochloride]", "50 to 70%"),
    ("C[C@H]1CNCC(Cc2c(F)cc(Cl)cc2-c2ncnn3cc(CN4C(=O)CN(C)CC4=O)cc23)O1 (single isomer, unassigned) [Example 119, hydrochloride]", "20 to 49%"),
]

---

TARGET OR TEST SYSTEM: full-length USP7 (Homo sapiens)
Construct: A 45 μl reaction volume containing full-length USP7 (0.5-1.0 nM)
ASSAY DETAILS: Enzymatic assay to determine % inhibition of USP7 activity at 1 μM test compound (Ubiquitin-Rhodamine 110 cleavage)
Format: biochemical
RECORDED CONDITIONS: 1 μM of the test compound; given where IC50 has not been determined yet; mean of two repetitions
Counter-ions that a name gives are not always drawn.

# MOLECULE, inhibition at 1 µM
data = [
    ("CN1CCOC(Cc2c(F)cc(Cl)cc2-c2ncnn3cc(Cn4c(=O)ccn(C)c4=O)cc23)C1 (racemic) [Example 103, hydrochloride]", "20 to 49%"),
    ("Cc1cc(Cl)cc(-c2ncnn3cc(CO)cc23)c1O[C@H]1CCCNC1 [Example 17, hydrochloride]", "< 20%"),
    ("CC1(C)NC(=O)N(Cc2cc3c(-c4cc(Cl)cc5ccn(C[C@@H]6CNCCO6)c45)ncnn3c2)C1=O [Example 36, hydrochloride]", "50 to 70%"),
    ("Cc1cc(Cl)cc(-c2ncnn3cc(CN4C(=O)CN(C)C4=O)cc23)c1C[C@@H]1CNCCO1 (single isomer, unassigned) [Example 99, hydrochloride]", "> 70%"),
    ("CC1(C)C2C(=O)N(Cc3cc4c(-c5cc(Cl)ccc5N5CC[C@H](N)C5)ncnn4c3)C(=O)C21 (some centres unmarked) [Example 86, hydrochloride]", "20 to 49%"),
    ("Cc1cc(Cl)cc(-c2ncnn3cc(Cn4c(=O)ccn(CC(=O)O)c4=O)cc23)c1C[C@@H]1CNCCO1 (single isomer, unassigned) [Example 125, hydrochloride]", "20 to 49%"),
    ("Cc1cc(Cl)cc(-c2ncnn3cc(C(=O)O)cc23)c1O[C@H]1CCCNC1 [Example 16, hydrochloride]", "< 20%"),
    ("Cc1cc(Cl)cc(-c2ncnn3cc(Cn4c(=O)ccn(C)c4=O)cc23)c1C[C@H]1CNCCO1 (single isomer, unassigned) [Example 100, hydrochloride]", "20 to 49%"),
    ("Cc1cc(Cl)cc(-c2ncnn3cc(CN4C(=O)C5C(C4=O)C5(C)C)cc23)c1CC1CNCC(CF)O1 (centres unmarked) [Example 42, hydrochloride]", "50 to 70%"),
    ("Cc1cc(Cl)cc(-c2ncnn3cc(CN4C(=O)C5C(C4=O)C5(C)C)cc23)c1NC[C@@H]1CNCCO1 (some centres unmarked) [Example 81, dihydrochloride]", "20 to 49%"),
    ("Cc1nc(C(F)(F)F)cc(-c2ncnn3cc(Cn4c(=O)ccn(C)c4=O)cc23)c1OC1CCCNC1 (centres unmarked) [Example 129, hydrochloride]", "< 20%"),
    ("CC1(C)C2C(=O)N(Cc3cc4c(-c5cc(Cl)cc6c5N(C5CNC5)CCC6)ncnn4c3)C(=O)C21 (centres unmarked) [Example 69, hydrochloride]", "> 70%"),
    ("CC1(C)C2C(=O)N(Cc3cc4c(-c5cc(F)cc6ccn(C[C@@H]7CNCCO7)c56)ncnn4c3)C(=O)C21 (some centres unmarked) [Example 33, 2,2,2-trifluoroacetate]", "> 70%"),
    ("Cc1cc(Cl)cc(-c2ncnn3cc(CN4C(=O)C5C(C4=O)C5(C)C)cc23)c1C(=O)N1CC(F)(F)C1 (centres unmarked) [Example 8, hydrochloride]", "20 to 49%"),
    ("Cc1cc(Cl)cc(-c2ncnn3cc(CN4C(=O)C5C(C4=O)C5(C)C)cc23)c1NCC1CCCNC1 (centres unmarked) [Example 79, dihydrochloride]", "50 to 70%"),
    ("CC1(C)C2C(=O)N(Cc3cc4c(-c5cc(Cl)ccc5N5C[C@@H]6CCN[C@@H]6C5)ncnn4c3)C(=O)C21 (some centres unmarked) [Example 96, hydrochloride]", "< 20%"),
    ("COC(=O)c1cc(-c2ncnn3cc(CN4C(=O)C5C(C4=O)C5(C)C)cc23)c2c(ccn2C[C@@H]2CNCCO2)c1 (some centres unmarked) [Example 34, 2,2,2-trifluoroacetate]", "< 20%"),
]
